Molecular target: Carbonic anhydrase 2 (Homo sapiens)
Assay: CAII small-molecule binders, profiling panel, biochemical, small-molecule microarray, Alexa647-labelled CAII (AID 1122)
Conditions: CAII-A647 binding fluorescence, higher = more signal
Label 1 (yes) when composite z-score is at or above 0.5; anything below gets 0 (no).

* O=C(c1ccccc1)N1C(=O)[C@@]2(Cc3ccccc31)N=C(c1ccc(OCCCO)cc1)O[C@H]2c1ccccc1 | 1 (yes)
* O=C(N1CCCCC1)[C@]1(Cc2ccccc2)N=C(c2ccc(OCCCO)cc2)O[C@@H]1c1ccccc1 | 0 (no)
* CC(C)C[C@@H]1NC(=O)[C@@H]2C[C@H](C(=O)NCc3ccc(F)cc3)[C@H](c3cccc(OCCO)c3)N2C1=O | 1 (yes)
* Cc1ccc(S[C@]2(C(=O)NCCCN(C)C)CC(=O)N(Cc3cc(C(F)(F)F)cc(C(F)(F)F)c3)[C@@H]2c2ccc(CO)cc2I)cc1 | 1 (yes)
* NC(=O)N1C(=O)C2C(C1=O)C1C=C(c3ccc(CO)cc3)C2C(c2cccs2)N1Cc1cccc(OC(F)(F)F)c1 (centres undefined) | 1 (yes)
* COc1ccc([Si](C)(C)[C@H]2[C@H](CC(=O)N3Cc4ccccc4C[C@H]3CO)O[C@@]3(C(=O)N(Cc4cccc(N5CCC5=O)c4)c4ccccc43)[C@@H]2C)cc1 | 1 (yes)
* COc1cc2c(cc1OC)CN(C(=O)[C@@H]1[C@H]3C(=O)O[C@H](c4ccccc4)[C@H](c4ccccc4)N3[C@H](c3ccc(O)cc3)[C@@]13C(=O)Nc1ccccc13)CC2 | 1 (yes)
* CC(C)OC(=O)C=C1C[C@@H](c2ccccn2)O[C@@H](c2ccccn2)O1 | 1 (yes)
* CCOC(=O)C[C@H]1[C@H](OC(=O)c2cc3ccccc3oc2=O)[C@@H](NC(=O)c2ccccc2)c2cc(OCCCO)ccc2N1C(=O)c1ccc2ccccc2n1 | 1 (yes)
* CC(C)C(O)C1C=CC2C(=O)NC(=O)C2N1Nc1ccc(Cl)cc1Cl (centres undefined) | 1 (yes)
* C=CCC(OC(C)=O)[C@@H]1[C@@H](N(Cc2cc3ccccc3o2)C(=O)c2cccc3ccccc23)c2cc(OCCCO)ccc2N1C(=O)c1ccc(-c2ccccc2)cc1 (some centres undefined) | 0 (no)
* COCCOC(=O)N1C(=O)[C@@]2(c3cc(C#Cc4ccc(OC)cc4)ccc31)[C@H](c1ccccc1OCCO)N1[C@H](c3ccccc3)[C@H](c3ccccc3)OC(=O)[C@H]1[C@@H]2C(=O)NC[C@H](O)c1ccccc1 | 1 (yes)
* [N-]=[N+]=Nc1ccccc1[C@@H]1OC(c2ccc(OCCCO)cc2)=N[C@]1(Cc1ccccc1)C(=O)N1CCOCC1 | 0 (no)
* C=C(COC)/C(=C/C[C@@H](OC(=O)c1ccncc1)c1ccc(CO)o1)c1cc(C(=O)OC)ccc1OC | 0 (no)

---

Molecular target: NADPH oxidase 2 (Homo sapiens) (UniProt P04839)
Sequence (P04839 whole entry, looked up): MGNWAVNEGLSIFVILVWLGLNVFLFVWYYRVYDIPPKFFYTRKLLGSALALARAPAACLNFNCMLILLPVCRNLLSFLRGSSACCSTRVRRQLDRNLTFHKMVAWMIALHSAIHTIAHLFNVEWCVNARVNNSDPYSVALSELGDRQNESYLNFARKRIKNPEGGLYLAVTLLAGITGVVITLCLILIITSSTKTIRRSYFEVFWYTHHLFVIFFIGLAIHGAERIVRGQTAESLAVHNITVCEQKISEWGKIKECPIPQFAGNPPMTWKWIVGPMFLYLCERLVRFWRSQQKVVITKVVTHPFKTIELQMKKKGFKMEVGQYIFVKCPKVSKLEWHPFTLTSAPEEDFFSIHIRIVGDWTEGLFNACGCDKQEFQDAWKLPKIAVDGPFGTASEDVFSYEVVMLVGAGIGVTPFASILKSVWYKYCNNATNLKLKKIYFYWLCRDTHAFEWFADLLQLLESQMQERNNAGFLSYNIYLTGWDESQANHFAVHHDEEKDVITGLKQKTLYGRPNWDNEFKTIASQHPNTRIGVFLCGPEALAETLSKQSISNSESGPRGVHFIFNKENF
Assay: NOX2-dependent H2O2 signal modulators, primary screen, NOX inhibitor project, cell-based, HEK293-NOX2, PMA-stimulated, Amplex Red fluorescence (AID 1159); also: test concentration not given here
Details: 45 min, higher = more signal, called active from +8 up or from −8 down
Active and inactive are the calls of the source.
Reported Property: z-score

• C=CCC(OC(C)=O)[C@@H]1[C@@H](N(Cc2cc3ccccc3o2)C(=O)c2cccc3ccccc23)c2cc(OCCCO)ccc2N1C(=O)c1ccc(-c2ccccc2)cc1 (some centres undefined) = 0.52 (inactive)
• O=C(OCc1ccccc1)C1=CCC2c3[nH]c4ccccc4c3C(=O)C1N2S(=O)(=O)c1ccccc1[N+](=O)[O-] (centres undefined) = 0.663 (inactive)
• COC(=O)[C@@]1(Cc2ccc(OC)cc2)[C@H]2c3cc(C(=O)N4CCCC4)n(CCN4CNCC4=O)c3C[C@H]2CN1C(=O)c1ccccc1 = 0.468 (inactive)
• COc1ccc(C(=O)Nc2ccc(CN3C(=O)[C@]4(O[C@H](CCO)[C@@H]([Si](C)(C)c5ccc(OC)cc5)[C@@H]4C)c4ccccc43)cc2)cc1 = -6.37 (inactive)

---

Molecular target: Streptavidin (Streptomyces avidinii)
Assay: streptavidin binders on small-molecule microarray, primary screen, artefact control for SMM compound annotation, biophysical, 635/667 nm fluorescence (AID 1147);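 also: signal reflects streptavidin binding to arrayed compounds as a control protein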
Settings: streptavidin binding, higher = more signal
Reported Property: composite z-score

- C=CCOC(=O)[C@@H]1[C@H]2C(=O)O[C@H](c3ccccc3)[C@H](c3ccccc3)N2[C@H](c2ccc(OCCOC(=O)[C@H]3C[C@H]4C(=O)N5CCC[C@H]5C(=O)N4[C@H]3c3ccc(O)cc3)cc2)[C@@]12C(=O)Nc1ccc(I)cc12: -0.033
- O=C1c2ccccc2[C@](Cc2ccccc2I)(C(=O)NCCN2CCOCC2)[C@H](c2ccc(CO)cc2)N1Cc1ccccc1Cl: 0.851
- CN(C)CCCCCCNC(=O)[C@H]1C[C@H]2C(=O)N[C@@H](CCCCN)C(=O)N2[C@H]1c1cccc(OCCO)c1: 2.14
- COC(=O)c1c(CC[C@@H](CO)NC(=O)NCCn2cc(C3(O)CCCC3)nn2)oc(C(C)=O)c1C(=O)OC: 0.102
- O=C(NCCN1CCOCC1)[C@@H]1c2ccccc2C(=O)N(C2CCCCC2)[C@H]1c1ccc(CO)cc1: 0.254
- C=CCN1C(=O)[C@]2(O[C@H](CCn3cc([C@H](O)c4ccccc4)nn3)[C@@H]([Si](C)(C)c3ccc(OC)cc3)[C@@H]2C)c2ccccc21: -0.957
- CC1(C)[C@@H]2CC(C(O)C3C=CC4C(=O)N(Cc5ccccc5)C(=O)C4N3n3cnnc3)=C[C@H]1C2 (stereo partly drawn): 0.512
- CCCC[C@@H]1C[C@H]1[C@@H](NC(=O)c1ccco1)c1ccccc1C(F)(F)F: 1.42

---

Assay: binders of probe aFSTL3 on microarray, primary screen, stem cell growth factor project, biochemical, small-molecule microarray, fluorescence 635/667 (AID 1064);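 also: measures binding of the biotinylated anti-FSTL3 antibody to printed compounds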
Conditions: higher = more signal
Label rule met when composite z-score is at or above 0.05; anything below gets rule not met.

- COc1ccc([Si](C)(C)[C@@H]2[C@@H](CCO)O[C@]3(C(=O)N(Cc4ccc(N(C=O)c5ccccc5)cc4)c4ccccc43)[C@H]2C)cc1: rule met
- C=CC[C@@]12N=C(c3ccc(OCCCO)cc3)O[C@@H]1c1ccccc1N(C)C2=O: rule met
- COc1ccc([Si](C)(C)[C@@H]2[C@@H](CC(=O)N3CCC[C@H]3CO)O[C@]3(C(=O)N(c4ccccc4)c4ccccc43)[C@H]2C)cc1: rule not met
- NC(=O)NCC#Cc1ccc2c(c1)[C@]1(C(=O)N2)[C@H](C(N)=O)[C@H]2C(=O)O[C@H](c3ccccc3)[C@H](c3ccccc3)N2[C@@H]1c1ccc(O)cc1: rule met
- O=C(OCc1ccccc1)C1=CCC2c3[nH]c4ccccc4c3C(=O)C1N2S(=O)(=O)c1ccccc1[N+](=O)[O-] (configuration not stated): rule not met
- C=C(COC)C(=O)CC[C@@H](OC(C)=O)c1ccc(CO)o1: rule not met
- [N-]=[N+]=NCc1ccccc1C[C@]1(C(=O)N2CCCCC2)N=C(c2ccc(OCCCO)cc2)O[C@H]1c1ccccc1N=[N+]=[N-]: rule met
- COC(=O)[C@@]1(CCS(=O)(=O)c2ccccc2)N=C(c2ccc(OCCCO)cc2)O[C@H]1c1ccccc1CN=[N+]=[N-]: rule met
- CCOC(=O)C[C@H]1[C@H](OC(=O)c2ccc(C(=O)c3ccccc3)cc2)[C@@H](NC(=O)CC(C)C)c2cc(OCCCO)ccc2N1C(=O)c1ccc2ccccc2n1: rule not met
- CCCCCCc1nc(-c2cc(C)c(OC)c(C)c2)cc2c1[Si](C(C)C)(C(C)C)OC2: rule met
- C=CCC(OC(C)=O)[C@@H]1[C@@H](N(Cc2ccc(-c3ccccc3)cc2)C(=O)c2cccc3ccccc23)c2cc(OCCCO)ccc2N1C(=O)c1ccc(-c2ccccc2)cc1 (some centres not stated): rule met
- C=CCNC(=O)[C@H]1[C@@H]2C(=O)O[C@@H](c3ccccc3)[C@@H](c3ccccc3)N2[C@@H](c2ccccc2OCCO)[C@]12C(=O)Nc1ccc(C#CCCO)cc12: rule met
- C=CCC(OC(C)=O)[C@@H]1[C@@H](N(Cc2cc3ccccc3o2)C(=O)c2cccc3ccccc23)c2cc(OCCCO)ccc2N1C(=O)c1ccc(-c2ccccc2)cc1 (some centres not stated): rule met
- NC(=O)NCC#Cc1ccc2c(c1)[C@]1(C(=O)N2)[C@H](c2ccccc2OCCO)N2[C@H](c3ccccc3)[C@H](c3ccccc3)OC(=O)[C@H]2[C@@H]1C(=O)Nc1nc2ccccc2s1: rule not met
- O=C(NC1CC1)[C@@H]1c2ccccc2C(=O)N(Cc2ccccc2Cl)[C@H]1c1ccc(CO)cc1: rule not met
- C=C(COC)/C(=C/C[C@H](OC(C)=O)c1ccc(CO)o1)c1cc(C(=O)OC)ccc1OC: rule not met
- C=CCNC(=O)[C@@H]1[C@H]2C(=O)O[C@H](c3ccccc3)[C@H](c3ccccc3)N2[C@H](c2ccc(O)cc2)[C@@]12C(=O)Nc1ccc(C#CCNC(N)=O)cc12: rule not met
- O=C1C[C@@](C(=O)NCC(F)(F)F)(c2ccc([N+](=O)[O-])cc2)[C@@H](c2ccc(CO)cc2I)N1C1CCCCC1: rule not met
- O=C1O[C@H](c2ccccc2)[C@H](c2ccccc2)N2[C@H]1[C@@H](C(=O)N1CCCCCCC1)[C@]1(C(=O)Nc3ccc(C#CC4=CCCCC4)cc31)[C@H]2c1ccc(OCCO)cc1: rule met
- CCOC(=O)C[C@H]1[C@H](OC(=O)c2ccc(-c3ccccc3)cc2)[C@@H](NC(=O)Cc2ccc(OC)cc2)c2cc(OCCCO)ccc2N1C(=O)c1ccccc1: rule not met
- CN(C)CCCC[C@@H]1NC(=O)[C@H]2C[C@@H](C(=O)NCCCCCCN)[C@@H](c3ccc(O)cc3)N2C1=O: rule met
- COc1cc2c(cc1OC)CN(C(=O)[C@H]1[C@@H]3C(=O)O[C@@H](c4ccccc4)[C@@H](c4ccccc4)N3[C@@H](c3ccc(O)cc3)[C@]13C(=O)Nc1ccccc13)CC2: rule met
- CC1CC/C=C\[C@H]2OC34C=CCN(C(C)(C)C)C(=O)[C@H]3N(C(C)CO)C(=O)[C@@H]4C2C(=O)O1 (some centres not stated): rule met
- C#C[C@H](O[Si](C#Cc1ccc(Oc2ccccc2)cc1)(C(C)C)C(C)C)c1ccccc1: rule not met
- COc1ccccc1CN1C(=O)c2ccccc2[C@@H](C(=O)NC2CC2)[C@@H]1c1ccc(CO)cc1: rule met
- COC(=O)c1c(CC[C@@H](CO)NC(=O)NCCn2cc(C3(O)CCCC3)nn2)oc(C(C)=O)c1C(=O)OC: rule not met
- C=CC[C@@]1(C(=O)NCCN2CCOCC2)N=C(c2ccc(OCCCO)cc2)O[C@@H]1c1ccccc1N=[N+]=[N-]: rule met

Hello, the source for this data is PubChem BioAssay, in case you need it.
